meta.source: paper doi:10.1101/2025.08.20.670845v1

Entries and their measured pEC50 follow.
- Target Desc: AgOctβ2R (AgOctβ2) (Anopheles gambiae, UniProt F5HKI1, N432C)
- Sequence (F5HKI1 1-526, stated change not applied): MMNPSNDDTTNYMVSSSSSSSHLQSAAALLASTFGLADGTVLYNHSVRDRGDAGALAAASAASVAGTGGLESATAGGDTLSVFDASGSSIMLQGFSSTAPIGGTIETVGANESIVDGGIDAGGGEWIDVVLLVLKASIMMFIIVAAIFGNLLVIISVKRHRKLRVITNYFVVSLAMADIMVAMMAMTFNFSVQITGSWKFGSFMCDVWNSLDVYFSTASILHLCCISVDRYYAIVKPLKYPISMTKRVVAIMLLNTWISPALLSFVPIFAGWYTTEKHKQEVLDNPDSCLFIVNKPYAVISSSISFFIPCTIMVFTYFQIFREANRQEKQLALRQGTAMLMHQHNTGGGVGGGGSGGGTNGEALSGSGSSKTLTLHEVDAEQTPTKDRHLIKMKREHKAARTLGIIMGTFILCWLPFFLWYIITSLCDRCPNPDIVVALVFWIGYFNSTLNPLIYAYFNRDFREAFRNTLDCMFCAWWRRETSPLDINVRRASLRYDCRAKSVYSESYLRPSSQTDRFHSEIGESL
- Measurement Notes: G-Flamp2 cAMP biosensor fluorescence in HeLa cells expressing the receptor
The quantity pEC50 is defined as the negative base-10 logarithm of the molar concentration.

> print(dat)
                               compound  reported.value
1  NCC(O)c1ccc(O)cc1 (centres unmarked)            7.24

Consider the additional compound presented here.
// fetch AgOctβ2R (AgOctβ2) (Anopheles gambiae, UniProt F5HKI1, N432C) pEC50 for Cc1ccc(/N=C/N(C)/C=N/c2ccc(C)cc2C)c(C)c1
6.93
